Assign Induction Activity (3-chlorobenzoate dechlorination activity) to each entry below.
Tested on: 3-Chlorobenzoate Dechlorination Activity
Assay: Induction of 3-chlorobenzoate dechlorination activity by growth with 3-chlorobenzoate, analogues, or chloro- and iodobenzoates (Tables 4, 5)
Format: cell-based, Desulfomonile tiedjei
Conditions: Table 4; inducers at 500 μM except 3-formylbenzoate 100 μM and 3-chlorobenzoate (amended at intervals); assay 1 mM 3-chlorobenzoate, two hours
The figure you give is taken to be in nMol/hr/mg protein; do not add the unit.

QUERY: Provide only the value of recorded Induction Activity (3-chlorobenzoate dechlorination activity) for OCc1cccc(Cl)c1 [--CH2 OH --Cl, 3-chlorobenzyl alcohol]
RESULT: 86

QUERY: Provide only the value of recorded Induction Activity (3-chlorobenzoate dechlorination activity) for O=Cc1cccc(C(=O)O)c1 [3-formylbenzoate]
RESULT: 8

QUERY: Provide only the value of recorded Induction Activity (3-chlorobenzoate dechlorination activity) for O=C(O)c1cccc(O)c1 [--COOH --OH]
RESULT: 3

QUERY: Provide only the value of recorded Induction Activity (3-chlorobenzoate dechlorination activity) for O=C(O)c1cccc(Cl)c1 [3-chlorobenzoate]
RESULT: 672

QUERY: Provide only the value of recorded Induction Activity (3-chlorobenzoate dechlorination activity) for N#Cc1cccc(C(=O)O)c1 [--COOH --CN]
RESULT: 7

QUERY: Provide only the value of recorded Induction Activity (3-chlorobenzoate dechlorination activity) for O=C(O)c1cccc(C(F)(F)F)c1 [--COOH --CF3, m-trifluoromethyl benzoate]
RESULT: 383

QUERY: Provide only the value of recorded Induction Activity (3-chlorobenzoate dechlorination activity) for O=C(O)c1cccc(F)c1 [3-fluorobenzoate]
RESULT: 570

QUERY: Provide only the value of recorded Induction Activity (3-chlorobenzoate dechlorination activity) for Cc1cccc(C(=O)O)c1 [3-methyl-benzoate]
RESULT: 409

QUERY: Provide only the value of recorded Induction Activity (3-chlorobenzoate dechlorination activity) for Nc1cccc(C(=O)O)c1 [--COOH --NH2]
RESULT: 4

All figures here come from patent US5200343A.
